Tested on: U251 CNS
assay_method_text: NCI-60 one-dose screen, 48 h (100 = growth as untreated, 0 = no growth, -100 = all killed)
stated_conditions: 10 µM
The panel holds about 83,000 compounds, 20% with a hit somewhere; the sample as a whole holds those more often. The source made the active and inactive calls. How the source made its calls: active means growth percent below 10; inactive means the rest.
In this section we review reported growth values for a set of compounds.

| compound | measured_on | growth |
| --- | --- | --- |
| CCOP(=O)(OCC)/C(C#N)=C/c1ccc(Br)cc1 | U251 CNS | 99.3% (inactive) |
| C[CH2][Hg][S]c1ccccc1C(=O)O | U251 CNS | -6.81% (active) |
| O=C1C=Cc2ccccc2C1=O | U251 CNS | 74.2% (inactive) |
| O=[N+]([O-])c1ccc(N(CCO)CCO)c2c1no[n+]2[O-] | U251 CNS | -69.2% (active) |
| O=[N+]([O-])c1cc[n+]([O-])c2ccccc12 | U251 CNS | -26.3% (active) |

Recorded growth for O=[N+]([O-])c1ccc(Br)c([N+](=O)[O-])c1 , please?
99.1% (inactive)

Entry to check: CC1CCC2(OC1)OC1C(O)C3C4CCC5CC(OC6OC(CO)C(OC7OC(CO)C(O)C(OC8OCC(O)C(O)C8O)C7OC7OC(CO)C(O)C(OC8OC(CO)C(O)C(O)C8O)C7O)C(O)C6O)C(O)CC5(C)C4CCC3(C)C1C2C (stereo unspecified)
-51.1% (active)

Entry to check: [Cl][Hg][c]1ccc2ccccc2c1
93.1% (inactive)

Entry to check: Oc1c(I)cc(I)cc1I
106% (inactive)

Entry to check: C/C1=C\[C@H](C)C[C@H](C)OC(=O)C[C@H](c2ccc(O)cc2)NC(=O)[C@@H](Cc2c(Br)[nH]c3ccccc23)N(C)C(=O)[C@H](C)NC(=O)[C@@H](C)C1
-50.6% (active)

Entry to check: NNc1ccccc1
103% (inactive)
